Known T½ of a selection of binders
# STUDY_SYSTEM: T1, hErbB3.mFc (soluble dimeric human ErbB3 extracellular domain fused to mouse Fc) (human)
# T1 construct: called dimeric
# T1 chain: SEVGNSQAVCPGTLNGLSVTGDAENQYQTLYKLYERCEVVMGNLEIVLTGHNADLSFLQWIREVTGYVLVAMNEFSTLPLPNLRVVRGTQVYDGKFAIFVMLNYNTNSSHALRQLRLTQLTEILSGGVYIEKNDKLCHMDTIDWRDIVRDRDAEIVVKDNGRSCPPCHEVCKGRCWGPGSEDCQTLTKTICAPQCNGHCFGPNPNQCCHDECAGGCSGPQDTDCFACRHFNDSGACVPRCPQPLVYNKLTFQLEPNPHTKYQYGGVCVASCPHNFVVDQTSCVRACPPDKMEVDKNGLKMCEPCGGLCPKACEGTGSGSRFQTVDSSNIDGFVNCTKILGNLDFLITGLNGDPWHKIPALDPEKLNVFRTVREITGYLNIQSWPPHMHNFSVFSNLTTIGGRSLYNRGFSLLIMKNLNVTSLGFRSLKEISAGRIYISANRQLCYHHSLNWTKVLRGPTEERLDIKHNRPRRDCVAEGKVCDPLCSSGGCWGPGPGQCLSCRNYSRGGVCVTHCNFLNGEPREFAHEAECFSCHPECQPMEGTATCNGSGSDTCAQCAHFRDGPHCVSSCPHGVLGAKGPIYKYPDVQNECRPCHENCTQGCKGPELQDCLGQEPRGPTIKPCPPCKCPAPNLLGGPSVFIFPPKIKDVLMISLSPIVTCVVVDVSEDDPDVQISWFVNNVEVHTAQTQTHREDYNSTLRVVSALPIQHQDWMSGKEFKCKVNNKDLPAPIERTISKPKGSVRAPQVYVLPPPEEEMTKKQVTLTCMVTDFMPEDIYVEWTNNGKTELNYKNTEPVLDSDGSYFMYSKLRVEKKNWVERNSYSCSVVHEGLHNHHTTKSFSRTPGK
# RUN_DESCRIPTION: SPR (Biacore), 25 C, mAb capture format
// return numeric value only (unit: h, not printed)

Use the examples below as a reference point.
H4H2151P (antibody, V domains shown, Fully human, human IgG4 Fc (H4H prefix)) VH: QVQLVESGGGVVQPGRSLRLSCAASGFTFSNYGMHWVRQAPGKGLEWVARIWYDGSNKYYADSVKGRFTISRDSSKNTLYLQMNSLRAEDTAVYYCAREGEQNLDYYPLDVWGQGTTVTVSS VL: DIVMTQSPSSLSASVGDRVTITCRASQDIRNDLGWYQQKPGKAPKLLIYAASSLQTGVPSRFSGSVSGTDFTLTISSLQPEDFATYYCLQDYTYPLTFGGGTKVEIK ... 186
H4H2092P (antibody, V domains shown, Fully human, human IgG4 Fc (H4H prefix)) VH: EVQLVESGGGVVRPGGSLRLSCAASGFTFEDYGMNWVRQVPGKGLEWVSGTNWNGGITGYTGSVKGRFTISRDNAKNSLYLQMNSLRAEDTALYHCARDSGDQDAFDIWGQGTMVTVSS VL: DIQLTQSPSFLSASVGDRVTITCWASQDISSYLAWYQQKPGKAPKLLIYAASTFQSGVPSRFSGSGSGTEFTLTISNLQPEDFATYYCQQLDSYPLSFGGGTKVEIKR ... 23.8

Now for another entry.
# get_value(readout='T½', item= H4H2098P (antibody, V domains shown, Fully human, human IgG4 Fc (H4H prefix)) VH: QVQLVESGGGVVQPGRSLRLSCAASGFTFSSFGMHWVRQAPGKGLEWVAVIWYVEINKYHADSVKGRFTISRDDSKNTVYLQMNSLRAEDTAVYYCARDWNDGDYGMDVWGQGTTVTVSS VL: DIQLTQSPSFLSASVGDRVTITCWASQGISSFLAWYQQKAGKAPRLLIYAASTLQTGVPSRFSGSGSGTEFTLTISSLQPGDFATYHCQQLNSYPYTFGQGTKLEIKR )
19.8

Data origin: patent US20140072563A1
